The following compounds are listed with their measured minimal effective concentration values.
Test system: third stage larvae of Haemonchus contortus
MEASUREMENT_NOTES: Haemonchus contortus, Larvae Stage 3 (HcL3) In Vitro Assay
Format: cell-based
CONDITION: Haemonchus contortus, 96 h, read-out: HcL3 MED, Minimum Effective Dose, H. contortus third stage larvae, approximately 96 hours
Kindly provide the numeric value in µM only, without the unit symbol.

Examples from the recorded data:
CC(C)C[C@H]1C(=O)O[C@H](Cc2ccc(Cc3cnsc3)cc2)C(=O)N(C)[C@@H](CC(C)C)C(=O)O[C@H](C)C(=O)N(C)[C@@H](CC(C)C)C(=O)O[C@H](Cc2ccc(Cc3cnsc3)cc2)C(=O)N(C)[C@@H](CC(C)C)C(=O)O[C@H](C)C(=O)N1C
10
Cc1cc(F)ncc1Cc1ccc(C[C@H]2OC(=O)[C@H](CC(C)C)N(C)C(=O)[C@@H](C)OC(=O)[C@H](CC(C)C)N(C)C(=O)[C@@H](Cc3ccc(Cc4cnc(F)cc4C)cc3)OC(=O)[C@H](CC(C)C)N(C)C(=O)[C@@H](C)OC(=O)[C@H](CC(C)C)N(C)C2=O)cc1
10
CC(C)C[C@H]1C(=O)O[C@H](Cc2ccc(Cc3cccnc3N(C)C)cc2)C(=O)N(C)[C@@H](CC(C)C)C(=O)O[C@H](C)C(=O)N(C)[C@@H](CC(C)C)C(=O)O[C@H](Cc2ccc(Cc3cccnc3N(C)C)cc2)C(=O)N(C)[C@@H](CC(C)C)C(=O)O[C@H](C)C(=O)N1C
1.2
CC(C)C[C@H]1C(=O)O[C@H](Cc2ccc(Cc3ccnn3CC3CC3)cc2)C(=O)N(C)[C@@H](CC(C)C)C(=O)O[C@H](C)C(=O)N(C)[C@@H](CC(C)C)C(=O)O[C@H](Cc2ccc(Cc3ccnn3CC3CC3)cc2)C(=O)N(C)[C@@H](CC(C)C)C(=O)O[C@H](C)C(=O)N1C
1.8
CC(C)C[C@H]1C(=O)O[C@H](Cc2ccc(Cc3occc3C#N)cc2)C(=O)N(C)[C@@H](CC(C)C)C(=O)O[C@H](C)C(=O)N(C)[C@@H](CC(C)C)C(=O)O[C@H](Cc2ccc(Cc3occc3C#N)cc2)C(=O)N(C)[C@@H](CC(C)C)C(=O)O[C@H](C)C(=O)N1C
0.3

Could you now look at the following compound, please?
Short answer please: minimal effective concentration, third stage larvae of Haemonchus contortus, entry `CC(C)C[C@H]1C(=O)O[C@H](Cc2ccc(Cc3ccnc(F)c3F)cc2)C(=O)N(C)[C@@H](CC(C)C)C(=O)O[C@H](C)C(=O)N(C)[C@@H](CC(C)C)C(=O)O[C@H](Cc2ccc(Cc3ccnc(F)c3F)cc2)C(=O)N(C)[C@@H](CC(C)C)C(=O)O[C@H](C)C(=O)N1C`
10

---

Tested on: third stage larvae of Haemonchus contortus
MEASUREMENT_NOTES: Haemonchus contortus, Larvae Stage 3 (HcL3) In Vitro Assay
Assay type: cell-based
CONDITION: Haemonchus contortus, 96 h, read-out: HcL3 MED, Minimum Effective Dose, H. contortus third stage larvae, approximately 96 hours
ENDPOINT: minimal effective concentration (µM)
Your answer should be a plain number; it is taken to be in µM.

Field: minimal effective concentration (third stage larvae of Haemonchus contortus). Entry: `CC(C)C[C@H]1C(=O)O[C@H](Cc2ccc(Cc3ccsc3)cc2)C(=O)N(C)[C@@H](CC(C)C)C(=O)O[C@H](C)C(=O)N(C)[C@@H](CC(C)C)C(=O)O[C@H](Cc2ccccc2)C(=O)N(C)[C@@H](CC(C)C)C(=O)O[C@H](C)C(=O)N1C`
1.8
